Biological target: MT2 (Homo sapiens)
Test: cAMP assay (GloSensor), isoproterenol-stimulated cAMP in HEK cells
Format: cell-based
Set-up: expressed in transfected cells; host or cells: HEK-T (HEK-293 T) cells, co-transfected with GloSensor DNA
Settings: agonist; read-out: EC50 at MT2
Method: MT1 and MT2 receptors were tested using Promega's spilt luciferase based GboSensor cAMP biosensor technology. […] To measure agonist activity of MT1 or MT2 receptor, 10 μl of test compound solution at 3× final concentration was added for 15 minutes followed by addition of 10 μl of luciferin/isoproterenol mixture (at a final concentration of 4 mM and 200 nM respectively) for another 15 mins for luminescence quantification. […] Data were analyzed using GraphPad Prism 6.0.
Measured quantity: pEC50
Reminder that pEC50 is minus the log10 of a molar concentration.

Task item: So what does the record say about pEC50 for COc1ccc2c(c1)N(Cc1ccc(C#N)c(OC)c1)CCO2 ?
Reply: 9.33

* * *

Catalogue of EC50 readings, one per entry.
Molecular target: UniProt:P49286
Sequence (P49286 1-362): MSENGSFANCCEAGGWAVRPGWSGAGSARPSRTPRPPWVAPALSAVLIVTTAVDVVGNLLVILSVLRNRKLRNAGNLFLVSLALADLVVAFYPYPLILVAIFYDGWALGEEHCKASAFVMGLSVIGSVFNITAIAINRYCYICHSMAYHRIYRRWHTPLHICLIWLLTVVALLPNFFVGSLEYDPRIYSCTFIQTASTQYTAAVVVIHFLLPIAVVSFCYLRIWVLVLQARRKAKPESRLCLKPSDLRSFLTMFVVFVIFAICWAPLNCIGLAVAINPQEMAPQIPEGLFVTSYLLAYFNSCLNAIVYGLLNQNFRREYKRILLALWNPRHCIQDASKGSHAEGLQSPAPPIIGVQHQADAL
Test: cAMP assay (GloSensor), isoproterenol-stimulated cAMP in HEK cells
Type: cell-based
Parameters: expressed in transfected cells; host or cells: HEK-T (HEK-293 T) cells, co-transfected with GloSensor DNA
Details: inverse agonist; read-out: EC50 at MT2
Field format: number, assumed nM, no unit text.

[
  {
    "Molecule": "CCOC(=O)c1nc(N(C)CC2CCCC2O)ccc1Br (centres unmarked)",
    "Numeric readout": 600
  }
]

Could you now consider this next molecule?
Task item: So what does the record say about EC50 for COc1ccc(CNc2cccc(-c3nnc[nH]3)c2)cc1 ?
Reply: 50

* * *

Catalogue of Ki readings, one per entry.
biological target: hMT1 (Homo sapiens); assay: 2-[125I]-iodomelatonin competition binding, CHO cell membranes; conditions: read-out: Ki at MT1; in the absence of GTP
Sequence (P48039 whole entry): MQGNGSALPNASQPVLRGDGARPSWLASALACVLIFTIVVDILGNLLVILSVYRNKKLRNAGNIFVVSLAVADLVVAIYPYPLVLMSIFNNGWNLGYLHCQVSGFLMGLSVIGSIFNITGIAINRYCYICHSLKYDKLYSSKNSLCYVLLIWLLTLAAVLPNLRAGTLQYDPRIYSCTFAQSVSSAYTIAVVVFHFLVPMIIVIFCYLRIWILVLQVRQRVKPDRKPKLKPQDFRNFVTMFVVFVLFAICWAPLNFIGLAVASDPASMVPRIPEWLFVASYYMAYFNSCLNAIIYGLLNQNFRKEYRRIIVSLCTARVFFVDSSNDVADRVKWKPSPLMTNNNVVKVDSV
Field format: number, assumed nM, no unit text.

[
  {
    "Molecule": "CC(C)c1ccc(CNc2cccc(-c3ncn[nH]3)c2)cc1 [ZINC157673384]",
    "System tested": "hMT1 (Homo sapiens)",
    "Unit tag": "nM",
    "Ki": 938
  }
]

Task item: So what does the record say about Ki for Clc1ccc(CNc2cccc(-c3nnc[nH]3)c2)c(Br)c1 [ZINC555417447] ?
Reply: 304

* * *

Molecular target: MT2 (Homo sapiens, UniProt P49286)
Sequence (P49286 1-362): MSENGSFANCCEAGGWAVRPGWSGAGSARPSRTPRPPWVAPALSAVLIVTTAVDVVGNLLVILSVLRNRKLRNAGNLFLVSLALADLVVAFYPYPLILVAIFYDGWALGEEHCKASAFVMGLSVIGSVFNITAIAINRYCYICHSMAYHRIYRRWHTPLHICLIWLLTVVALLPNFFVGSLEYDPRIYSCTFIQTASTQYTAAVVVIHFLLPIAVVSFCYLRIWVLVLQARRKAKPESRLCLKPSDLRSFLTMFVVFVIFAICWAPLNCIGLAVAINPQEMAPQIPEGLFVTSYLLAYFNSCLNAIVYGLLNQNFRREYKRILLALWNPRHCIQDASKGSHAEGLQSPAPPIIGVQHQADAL
Assay: cAMP assay (GloSensor), isoproterenol-stimulated cAMP in HEK cells
Format: cell-based
Design: expressed in transfected cells; host or cells: HEK-T (HEK-293 T) cells, co-transfected with GloSensor DNA
Details: HEK293, Table 2; cell marked Inverse (inverse agonist); read-out: MT2 % Emax (converted)
Measured quantity: Emax (%)
Field format: number, assumed %, no unit text.

Example molecules with recorded Emax:
[
  {
    "Molecule": "Cc1nnc(-c2cccc(NCc3ccc(Cl)cc3)c2)[nH]1 [ZINC37781620]",
    "Measured quantity": "Emax",
    "Unit tag": "%",
    "Numeric readout": 120
  },
  {
    "Molecule": "Clc1cc(Br)ccc1CNc1cccc(-c2nnc[nH]2)c1 [ZINC516666069]",
    "Measured quantity": "Emax",
    "Unit tag": "%",
    "Numeric readout": 118
  },
  {
    "Molecule": "Clc1ccc(CNc2cccc(-c3nnc[nH]3)c2)c(Cl)c1 [ZINC157676497]",
    "Measured quantity": "Emax",
    "Unit tag": "%",
    "Numeric readout": 62
  }
]

Task item: So what does the record say about Emax for COc1ccc(CNc2cccc(-n3nccn3)c2)cc1 [ZINC864032792] ?
Reply: 35

Task item: So what does the record say about Emax for Clc1ccc(CNc2cccc(-c3nnc[nH]3)c2)c(Br)c1 [ZINC555417447] ?
Reply: 84

* * *

Catalogue of MT2 pEC50 readings, one per entry.
biological target: MT2 (Homo sapiens, UniProt P49286); assay: cAMP assay (GloSensor), isoproterenol-stimulated cAMP in HEK cells; assay type: cell-based; set-up: expressed in transfected cells; host or cells: HEK-T (HEK-293 T) cells, co-transfected with GloSensor DNA; conditions: Table 2; agonist

Example compounds with recorded MT2 pEC50:
[
  {
    "Compound": "COC(=O)c1csc(CSc2nnc(C3CC3)[nH]2)c1 [ZINC713465976]",
    "Result": "8.23 ± 0.11"
  },
  {
    "Compound": "COc1ccc(CNc2cccnc2)cc1 [ZINC5586789]",
    "Result": "8.07 ± 0.15"
  },
  {
    "Compound": "COc1ccc2c(c1)N(Cc1ccn(C)c(=O)c1)CCO2 [ZINC608506688]",
    "Result": "8.60 ± 0.10"
  },
  {
    "Compound": "COC(=O)c1cc(Cn2nc(C)c(N)c2C)c(C)s1 [ZINC602421874]",
    "Result": "5.35 ± 0.10"
  },
  {
    "Compound": "COc1ccc(CN(C(=O)c2ccccc2F)c2ccncc2)cc1 [ZINC151192780]",
    "Result": "7.13 ± 0.12"
  },
  {
    "Compound": "COc1ccc(CN(C(=O)c2scc(C)c2Cl)c2ccncc2)cc1 [ZINC485552623]",
    "Result": "5.80 ± 0.06"
  }
]

Task item: So what does the record say about MT2 pEC50 for COc1ccc(CN(C(=O)OC2CCC2)c2ccncc2)cc1 [ZINC497291360] ?
Reply: 7.48 ± 0.05

Task item: So what does the record say about MT2 pEC50 for COc1ccc(CNc2cccnc2C)cc1C [ZINC91496083] ?
Reply: 7.15 ± 0.17

* * *

molecular target: MT2 (Homo sapiens); assay: cAMP assay (GloSensor), isoproterenol-stimulated cAMP in HEK cells; type: cell-based; parameters: expressed in transfected cells; host or cells: HEK-T (HEK-293 T) cells, co-transfected with GloSensor DNA; settings: HEK293, Table 2; agonist; normalized to melatonin response; read-out: MT2 % Emax (converted)
Rule: Emax below 90% gives Y. Equal to or above 90% gives N.

The examples below pair each entry with its known result.
[
  {
    "Compound": "COc1ccc(CN(C(=O)OC2CCC2)c2ccncc2)cc1 [ZINC497291360]",
    "System tested": "MT2 (Homo sapiens)",
    "Label value": "Y"
  },
  {
    "Compound": "COC(=O)c1cc(Cn2nc(C)c(N)c2C)c(C)s1 [ZINC602421874]",
    "System tested": "MT2 (Homo sapiens)",
    "Label value": "Y"
  },
  {
    "Compound": "COc1ccc(CN(C(=O)c2scc(C)c2Cl)c2ccncc2)cc1 [ZINC485552623]",
    "System tested": "MT2 (Homo sapiens)",
    "Label value": "N"
  },
  {
    "Compound": "COc1ccc(CNc2cccnc2)cc1 [ZINC5586789]",
    "System tested": "MT2 (Homo sapiens)",
    "Label value": "Y"
  }
]

Task item: Does the reported Emax of COc1ccc(CN(C(=O)c2ccccc2F)c2ccncc2)cc1 [ZINC151192780] stay below 90%?
Reply: N

Task item: Does the reported Emax of COC(=O)c1csc(CSc2nnc(C3CC3)[nH]2)c1 [ZINC713465976] stay below 90%?
Reply: N

Task item: Does the reported Emax of COc1ccc(CNc2cccnc2C)cc1C [ZINC91496083] stay below 90%?
Reply: N

Task item: Does the reported Emax of CN(Cc1ccc2c(c1)OCO2)c1ccnc(Cl)c1 [ZINC223593565] stay below 90%?
Reply: Y
